Answer each item with its documented pEC50.
study system: T1, Extracellular domain of human ROR1 protein (ROR1-ECD) (human, UniProt Q01973 30-403)
T1 construct: Expressed in HEK293T cells; also called human ROR1-ECD; purified human ROR1 protein extracellular segment
T1 sequence (Q01973 other isoform, or with tags, fused parts or gaps): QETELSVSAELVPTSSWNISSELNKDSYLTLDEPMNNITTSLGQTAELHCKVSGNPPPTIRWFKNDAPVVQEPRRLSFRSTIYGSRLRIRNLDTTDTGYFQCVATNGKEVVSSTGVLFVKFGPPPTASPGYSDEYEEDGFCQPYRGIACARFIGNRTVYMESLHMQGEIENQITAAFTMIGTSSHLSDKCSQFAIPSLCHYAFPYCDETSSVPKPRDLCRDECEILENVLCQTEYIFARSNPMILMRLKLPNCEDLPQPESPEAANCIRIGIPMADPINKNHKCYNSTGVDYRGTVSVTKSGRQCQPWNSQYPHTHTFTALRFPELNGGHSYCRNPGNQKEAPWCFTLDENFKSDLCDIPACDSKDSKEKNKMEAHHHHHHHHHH
assay comment: ELISA, purified ROR1-ECD
Keep in mind that pEC50 stands for -log10 of concentration in molar terms.

Given the entry mAb007 (antibody, IgG2b, V domains shown, Mouse monoclonal antibody, IgG2b/k) VH: EVQLQQSGPELVKPGASVKMSCKASGYTFTDYNMHWVKQSHGKSLEWIGYINPNNGGTSYNQKFKGKATLTVNKSSSTAYMELRSLTSDDSAVYYCARRGYGSGYAMDYWGQGTSVTVSS VL: DVLMTQTPLSLPVSLGDQASISCRSSQSIVHTNGNTYLEWYLQNPGQSPKLLIYKVFNRFSGVPDRFSGSGSGTDFTLKISRVEAEDLGVYYCFQGSLFPYTFGGGTKLEIK , report its measured pEC50.
10.18

Thanks! And mAb004 (antibody, IgG2b, V domains shown, Mouse monoclonal antibody, IgG2b/k) VH: EVQLVESGGGLVQPKGSLKLSCAASGFTFNTYAMHWVRQAPGKGLEWVARIRSKSSNFATYYADSVRDRFTISRDDSQSMLYLQMNNLKTEDTAMYYCVRGYGPSYFSLDYWGQGTSVTVSS VL: DVVMTQTPLSLPVSLGDQASISCRSSQSLVHSNGNTYLHWYLQKPGQSPKLLIYKVSNRFSGVPDRFSGSGSGTDFTLKINRVEAEDLGVYFCSQSTHAIYTFGGGTKLEIK ?
10.42
